- System: MDA-MB-231 breast
- METHOD_SUMMARY: NCI-60 one-dose screen, 48 h
- EXPERIMENTAL_SETUP: 10 µM
About 83,000 compounds went through this panel and 20% of them were active in at least one assay; those are over-represented in the sample as a whole. The source made the active and inactive calls. The calls were made as follows: active = growth percent below 10; inactive = the rest.
Returns: one label drawn from active, inactive

Examples from the recorded data:
# COMPOUND, QUALITATIVE_LABEL
data = [
    ("CC(C)(C)c1cc(NC(=O)Cc2ccc(-c3cnc4cc(-c5cnn(CCN6CCOCC6)c5)ccc4n3)cc2)no1", "active"),
    ("CCCCCCCCCCCCCCCc1ccc(Cl)c(O)c1Cl (tested in a mixture with another compound)", "inactive"),
    ("Cc1[nH]c(-c2nc3ccccc3[nH]2)c(C)c1C(=O)NC(C)C1CCCCC1 (centres undefined)", "inactive"),
]

As a next step, examine the compound that follows.
How was `CNC(=O)c1cc(Oc2ccc(CC(=O)Nc3cc(C(C)(C)C)nn3C)cc2)ccn1` classified in this test? inactive
